Molecular target: CDK6/cyclin D1 (Homo sapiens, UniProt Q00534)
Sequence (Q00534 whole entry): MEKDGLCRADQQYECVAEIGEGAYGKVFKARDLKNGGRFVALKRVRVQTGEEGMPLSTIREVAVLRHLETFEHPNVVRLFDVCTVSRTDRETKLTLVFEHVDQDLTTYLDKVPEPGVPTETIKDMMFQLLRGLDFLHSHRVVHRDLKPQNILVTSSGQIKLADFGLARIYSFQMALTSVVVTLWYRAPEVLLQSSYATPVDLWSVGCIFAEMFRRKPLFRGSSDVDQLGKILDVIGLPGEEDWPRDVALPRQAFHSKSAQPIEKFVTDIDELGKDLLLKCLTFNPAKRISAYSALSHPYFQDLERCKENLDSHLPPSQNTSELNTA
Sequence (P24385 whole entry partner): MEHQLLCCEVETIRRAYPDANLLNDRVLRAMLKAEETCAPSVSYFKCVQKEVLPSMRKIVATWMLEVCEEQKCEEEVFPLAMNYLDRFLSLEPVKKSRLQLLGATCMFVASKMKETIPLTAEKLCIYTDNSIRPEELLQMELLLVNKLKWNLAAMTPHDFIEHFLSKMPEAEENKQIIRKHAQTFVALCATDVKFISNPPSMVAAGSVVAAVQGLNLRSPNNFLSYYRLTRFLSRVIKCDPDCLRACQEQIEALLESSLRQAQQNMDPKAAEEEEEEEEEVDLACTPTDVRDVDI
Assay: CDK6/cyclin D1 Lance Ultra enzyme assay
Settings: 250 μM ATP, 180 minutes
Reported values of IC50 for individual entries

Example cases with answers are listed next.
compound="CC(C)c1c2cc(-c3nc(Nc4ccc(N5C[C@@H]6C[C@H]5CN6)cn4)ncc3F)ccc2nn1C [Example 15]" observation_type=IC50 measurement="< 0.8 nM"
compound="CC(C)c1c2cc(-c3nc(Nc4ccc(N5CCN(CCN)CC5)cn4)ncc3F)ccc2nn1C [Example 9]" observation_type=IC50 measurement="< 0.8 nM"

Now look at this one.
# return recorded IC50 for input CC(C)c1c2cc(-c3nc(Nc4ccc(N5CCNCC5)cn4)ncc3F)ccc2nn1C [Example 3]
< 0.8 nM
